Taken from patent US20190367592A1.

# tested system: T1, recombinant human Tau monomer, 2N4R isoform (amino acids 2-441) (human, UniProt P10636-8 2-441)
# T1 construct: range 2-441; N-terminal His-tag removed with TEV protease; also called monomeric Tau
# T1 sequence (P10636 other isoform, or with tags, fused parts or gaps limits assumed): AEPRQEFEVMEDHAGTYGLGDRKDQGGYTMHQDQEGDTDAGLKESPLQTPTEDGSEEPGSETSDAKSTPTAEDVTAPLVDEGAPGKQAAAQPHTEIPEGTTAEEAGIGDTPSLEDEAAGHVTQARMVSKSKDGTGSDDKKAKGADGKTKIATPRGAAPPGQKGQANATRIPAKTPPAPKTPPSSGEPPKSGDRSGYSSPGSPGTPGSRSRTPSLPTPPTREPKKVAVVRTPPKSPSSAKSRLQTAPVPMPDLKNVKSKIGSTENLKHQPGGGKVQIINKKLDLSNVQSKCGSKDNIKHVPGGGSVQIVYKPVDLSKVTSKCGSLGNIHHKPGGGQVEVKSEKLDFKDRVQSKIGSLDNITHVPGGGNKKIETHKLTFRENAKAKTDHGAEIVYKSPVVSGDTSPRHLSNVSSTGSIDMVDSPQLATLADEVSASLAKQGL
# test method notes: SPR, captured IgG, Tau monomer analyte, 1:1 model; fit-quality column: Yes
Could you please mark 1 for values of Kd below 2 nM and -1 for values at or above it?

Quick check: Kd of hu37D3-H9.v5 hIgG1 (antibody, V domains shown, human IgG1, kappa) VH: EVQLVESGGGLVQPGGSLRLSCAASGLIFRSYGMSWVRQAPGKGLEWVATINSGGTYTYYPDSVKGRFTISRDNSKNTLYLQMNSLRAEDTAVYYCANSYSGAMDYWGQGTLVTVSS VL: EDVLTQTPLSLPVTPGQPASISCRSSQSIVHSNGNTYFEWYLQKPGQSPQLLIYKVSNRFSGVPDRFSGSGSGTDFTLKISRVEAEDVGVYYCFQGSLVPWTFGQGTKVEIK under 2 nM?
1

Quick check: Kd of hu37D3.v28.A8 (antibody, V domains shown) VH: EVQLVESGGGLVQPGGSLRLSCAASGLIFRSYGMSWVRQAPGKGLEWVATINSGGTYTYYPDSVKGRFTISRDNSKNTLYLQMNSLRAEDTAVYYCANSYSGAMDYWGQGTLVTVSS VL: DDVMTQTPLSLPVTPGQPASISCRSSQSIVHSNGNTYFEWYLQKPGQSPQLLIYKVSNRFSGVPDRFSGSGSGTDFTLKISRVEAEDVGVYYCFQGSLVPWTFGQGTKVEIK under 2 nM?
1

Quick check: Kd of hu37D3.v28.C1 (antibody, V domains shown) VH: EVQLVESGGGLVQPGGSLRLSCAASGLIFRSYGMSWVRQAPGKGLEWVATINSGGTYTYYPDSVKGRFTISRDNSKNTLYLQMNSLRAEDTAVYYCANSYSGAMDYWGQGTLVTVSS VL: DDVLTQTPLSLPVTPGQPASISCRSSQSIVHSNNNTYFEWYLQKPGQSPQLLIYKVSNRFSGVPDRFSGSGSGTDFTLKISRVEAEDVGVYYCFQGSLVPWTFGQGTKVEIK under 2 nM?
1

Quick check: Kd of hu37D3-H9.v5 (antibody, V domains shown, human IgG1 or IgG4, kappa) VH: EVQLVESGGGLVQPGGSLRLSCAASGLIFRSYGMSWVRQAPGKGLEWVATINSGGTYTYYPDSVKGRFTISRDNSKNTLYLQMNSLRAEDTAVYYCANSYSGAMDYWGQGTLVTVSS VL: EDVLTQTPLSLPVTPGQPASISCRSSQSIVHSNGNTYFEWYLQKPGQSPQLLIYKVSNRFSGVPDRFSGSGSGTDFTLKISRVEAEDVGVYYCFQGSLVPWTFGQGTKVEIK under 2 nM?
1

Quick check: Kd of hu37D3.v29.4 (antibody, V domains shown) VH: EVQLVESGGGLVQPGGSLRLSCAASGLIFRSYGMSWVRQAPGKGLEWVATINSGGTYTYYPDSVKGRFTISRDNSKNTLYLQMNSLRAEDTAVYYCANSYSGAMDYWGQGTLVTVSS VL: EDVLTQTPLSLPVTPGQPASISCRSSQSIVHSNGATYFEWYLQKPGQSPQLLIYKVSNRFSGVPDRFSGSGSGTDFTLKISRVEAEDVGVYYCFQGSLVPWTFGQGTKVEIK under 2 nM?
-1
